assay: xn = mol fraction of the nth substance listed, in the solute-free solvent; conditions: 293.15 K; x2 = 0.6
molecules and their reported solubility (g/100 g solution)

>  <molecule>
Cc1nc(C)c(C)nc1C + CO + CC#N

>  <solubility (g/100 g solution)>
47.6

$$$$
>  <molecule>
O=CC(O)C(O)C(O)CO (centres undefined) + CCO + CCCCCC

>  <solubility (g/100 g solution)>
0.715

$$$$
>  <molecule>
Cl.NC(C=O)C(O)C(O)C(O)CO (centres undefined) + O + CCO

>  <solubility (g/100 g solution)>
2.9

$$$$
>  <molecule>
O=c1cc(-c2ccccc2)oc2cc(O)c(O)c(O)c12 + CCO + O

>  <solubility (g/100 g solution)>
0.52

$$$$
>  <molecule>
O=CC(O)C(O)C(O)CO (centres undefined) + CCO + ClCCl

>  <solubility (g/100 g solution)>
2.55

$$$$
>  <molecule>
O=CC(O)C(O)C(O)CO (centres undefined) + CC(C)O + CCCCCC

>  <solubility (g/100 g solution)>
0.453

$$$$
>  <molecule>
Cc1nc(C)c(C)nc1C + CCCCO + CC#N

>  <solubility (g/100 g solution)>
39.4

$$$$
>  <molecule>
O=CC(O)C(O)C(O)CO (centres undefined) + CO + ClCCl

>  <solubility (g/100 g solution)>
5.59

$$$$
>  <molecule>
Cl.NC(C=O)C(O)C(O)C(O)CO (centres undefined) + O + CO

>  <solubility (g/100 g solution)>
6

$$$$

----------
Recorded solubility (g/100 g solution) for the following compounds
experiment: xn = mol fraction of the nth substance listed, in the solute-free solvent; conditions: 313.15 K; x2 = 0.7
experimental_readout: solubility (g/100 g solution)

>  <compound>
Cl.NC(C=O)C(O)C(O)C(O)CO (stereo not given) + O + CCO

>  <recorded_value>
8.39

$$$$
>  <compound>
Cc1nc(C)c(C)nc1C + CO + CC#N

>  <recorded_value>
70

$$$$
>  <compound>
Cc1nc(C)c(C)nc1C + CCCCO + CC#N

>  <recorded_value>
53.6

$$$$
>  <compound>
O=CC(O)C(O)C(O)CO (stereo not given) + CC(C)O + CCCCCC

>  <recorded_value>
1.61

$$$$
>  <compound>
O=CC(O)C(O)C(O)CO (stereo not given) + CCO + CCCCCC

>  <recorded_value>
2.44

$$$$

----------
assay: xn = mol fraction of the nth substance listed, in the solute-free solvent; details: 313.15 K; x2 = 0.3
# key: entry, value: solubility (g/100 g solution)
experimental_readout: solubility (g/100 g solution)

>  <compound>
Cc1nc(C)c(C)nc1C + CCCCO + CC#N

>  <experimental_readout>
solubility (g/100 g solution)

>  <recorded_value>
50.5

$$$$
>  <compound>
O=CC(O)C(O)C(O)CO (centres undefined) + CCO + CCCCCC

>  <experimental_readout>
solubility (g/100 g solution)

>  <recorded_value>
0.269

$$$$
>  <compound>
Cc1nc(C)c(C)nc1C + CO + CC#N

>  <experimental_readout>
solubility (g/100 g solution)

>  <recorded_value>
55.7

$$$$
>  <compound>
O=CC(O)C(O)C(O)CO (centres undefined) + CC(C)O + CCCCCC

>  <experimental_readout>
solubility (g/100 g solution)

>  <recorded_value>
0.277

$$$$
